- Test system: 379773-124-R-J2-PDC spheroid viability;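 also: spheroids exposed to drugs for seven days before readout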
- method-notes: Anticancer human tumor 379773-124-R-J2-PDC patient-derived endometrial carcinoma cell line growth inhibition [POLQ]; active = viability on the fitted dose curve at most 10% of control; inactive = the rest
- particulars: second compound 1 µM; first compound 0.1 µM; spheroids with HUVEC and MSC
- Experimental: Multicellular complex tumor spheroid response to Polymerase (POL) inhibitors (novobiocin, ART-558, RP6685) in combination with a variety of drugs and investigational agents in selected tumor cell lines The POL inhibitors (novobiocin, ART-558, and RP6685) were evaluated both individually and in combination with standard of care and investigational anticancer small molecules within a complex spheroid model of solid tumors. . […]
Classes used: T (active), F (inactive)

COc1ccc([C@@H](O)c2cc(-c3ncnc4cc(N5CCOCC5)ccc34)c(F)cc2Cl)nn1 + COC1C(OC(N)=O)C(O)C(Oc2ccc3c(O)c(NC(=O)c4ccc(O)c(CC=C(C)C)c4)c(=O)oc3c2C)OC1(C)C    F
Nc1ccn(C2OC(CO)C(O)C2(F)F)c(=O)n1 (stereo not given) + COC1C(OC(N)=O)C(O)C(Oc2ccc3c(O)c(NC(=O)c4ccc(O)c(CC=C(C)C)c4)c(=O)oc3c2C)OC1(C)C    T
CC1COCCN1c1cc(-c2ccnn2C)c2ccnc(-c3ccn[nH]3)c2n1 (stereo not given) + COC1C(OC(N)=O)C(O)C(Oc2ccc3c(O)c(NC(=O)c4ccc(O)c(CC=C(C)C)c4)c(=O)oc3c2C)OC1(C)C    F
Cn1ncnc1[C@H]1c2n[nH]c(=O)c3cc(F)cc(c23)N[C@@H]1c1ccc(F)cc1 + Cc1cccc(N(C)C(=O)C2C(O)CCN2c2nc(C)cc(C(F)(F)F)c2C#N)c1    F
CCc1cc2c(N3CCc4c(cc(Cn5ccnc5)cc4-c4cn(C)nc4C(F)(F)F)C3=O)ccnc2c(OC)n1 + COC1C(OC(N)=O)C(O)C(Oc2ccc3c(O)c(NC(=O)c4ccc(O)c(CC=C(C)C)c4)c(=O)oc3c2C)OC1(C)C    F
CCCS(=O)(=O)Nc1ccc(F)c(C(=O)c2c[nH]c3ncc(-c4ccc(Cl)cc4)cc23)c1F + Cc1cccc(N(C)C(=O)C2C(O)CCN2c2nc(C)cc(C(F)(F)F)c2C#N)c1    F
CCc1cc2c(N3CCc4c(cc(Cn5ccnc5)cc4-c4cn(C)nc4C(F)(F)F)C3=O)cc(C)nc2c(OC)n1 + Nc1ccc(C#CCN(C(=O)Cc2ncc(C(F)(F)F)cc2C(F)(F)F)c2ccc(F)cc2)nn1    F
COc1cc(C2c3cc4c(cc3C(OC3OC5COC(C)OC5C(O)C3O)C3COC(=O)C23)OCO4)cc(OC)c1O (stereo not given) + Cc1cccc(N(C)C(=O)C2C(O)CCN2c2nc(C)cc(C(F)(F)F)c2C#N)c1    F
CC1COCCN1c1cc(C2(S(C)(=N)=O)CC2)nc(-c2ccnc3[nH]ccc23)n1 (stereo not given) + COC1C(OC(N)=O)C(O)C(Oc2ccc3c(O)c(NC(=O)c4ccc(O)c(CC=C(C)C)c4)c(=O)oc3c2C)OC1(C)C    F
O=c1[nH]cc(F)c(=O)[nH]1 + COC1C(OC(N)=O)C(O)C(Oc2ccc3c(O)c(NC(=O)c4ccc(O)c(CC=C(C)C)c4)c(=O)oc3c2C)OC1(C)C    F

Taken from PubChem BioAssay AID1963848.
